Numbers sourced from paper PMC5540273.

- Test system: MKNK2
- details: concentration: 1 μM, replicates: in singlicate; n = 1;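 note: KINOMEscan kinase panel screen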
value type: %Inh
Record the result as a number with its unit.

Consider the worked cases shown below.
compound	value type	assay result
COc1ccc(Nc2nccc(N3CCC(NC(=O)C(C)c4ccc(Cl)cc4)CC3)n2)cc1 (centres unmarked)	%Inh	5%
Cc1ccccc1-c1cc(-c2c[nH]nc2-c2ccccn2)ccn1	%Inh	0%
CS(=O)(=O)Cc1ccc(Nc2nccc(-c3c(-c4cccc(NC(=O)C5CCCCC5)c4)nn4ncccc34)n2)cc1	%Inh	13%

What value of %Inh has been recorded for this entry: O=C(Nc1n[nH]c2nc(-c3cccs3)c(Br)cc12)C1CC1 39%

Data request, read-out %Inh, for COc1ccc(CSc2nnc(-c3ccc4ncsc4c3)o2)cc1C(F)(F)F 0%

What does the data say about its %Inh? Entry: CNCc1ccc2nc(NC(=O)c3ccc(C(C)(C)C)cc3)cn2c1 10%

Any idea what its %Inh is? The compound is COC(=O)C(Cc1ccccc1)NC(=O)NC1CCN(c2ccnc(Nc3ccc(F)cc3)n2)C1 (centres unmarked) 0%

Fill blank: measured %Inh of the compound COc1ccc(Nc2nccc(N3CCC(NC(=O)C(C)c4ccc(Cl)cc4)C3)n2)cc1 (centres unmarked) is ____. 2%

Quick check: %Inh of CC[C@@H]1CO[C@H](C(=O)Nc2ccccc2)CN1c1cc(-c2ccc3c(N)n[nH]c3c2)nc(NC)n1 ? 0%

Any idea what %Inh was measured for COc1ccc(Nc2nccc(N3CCC(NC(=O)c4cc5ccccc5s4)C3)n2)cc1 (centres unmarked) ? 11%

# lookup: %Inh of CNC(=O)c1ccc(C)c(-n2c(C)cc(OCc3ccc(F)cc3F)c(Br)c2=O)c1 100%

Please look up its %Inh: COC(=O)C(NC(=O)NC1CCN(c2ccnc(Nc3ccc(F)cc3)n2)C1)c1ccccc1 (centres unmarked) 6%

Which %Inh is listed for O=c1cc(N2CCOCC2)nc2n(Cc3ccccc3F)ccn12 ? 0%

What measured %Inh goes with COc1cccc(CNC(=O)NC2CCN(c3ccnc(Nc4ccc(F)cc4)n3)C2)c1 (centres unmarked) ? 8%

====

- System: IKK-beta
- Construct: gene IKBKB
- details: concentration: 1 μM, replicates: in singlicate; n = 1
value type: %Inh

compound	%Inh
Cl.Cl.Cl.N#Cc1ccc(CCNc2nccc(-c3cccc(CN4CCNCC4)c3)n2)cc1 [GSK2137462]	0%
CC(=O)c1c(C)c2cnc(Nc3ccc(N4CCNCC4)cn3)nc2n(C2CCCC2)c1=O	0%
COC(=O)C(Cc1ccccc1)NC(=O)NC1CCN(c2ccnc(Nc3ccc(F)cc3)n2)C1 (centres unmarked) [GSK1379714]	0%
COC(=O)c1cccc(NC(=O)NC2CCN(c3ccnc(Nc4ccc(F)cc4)n3)C2)c1 (centres unmarked) [GSK1379725]	5%

Shifting focus to the compound that follows.
What measured %Inh goes with CNc1cc(-c2ccc3c(N)n[nH]c3c2)nc(N)n1 [GSK2224810] ? 0%

====

Entries annotated with measured %Inh
- System: HASPIN
- Construct: gene GSG2
- details: concentration: 1 μM, replicates: in singlicate; n = 1
Quick reminder: number only, in %, skip the unit.

compound	%Inh, %
O=C(Nc1n[nH]c2cc(-c3ccsc3)ccc12)C1CC1	43
COc1cccc(CNC(=O)NC2CCN(c3ccnc(Nc4ccc(F)cc4)n3)C2)c1 (stereo not drawn)	0
O=c1cc(N2CCOCC2)nc2n(Cc3ccccc3F)ccn12	35
COC(=O)c1cccc(NC(=O)NC2CCN(c3ccnc(Nc4ccc(F)cc4)n3)C2)c1 (stereo not drawn)	0
CC(C)c1cc(-c2ccc3c(N)n[nH]c3c2)nc(N)n1	83

What does the record list as %Inh for Cc1c(Cn2c3ccccc3n3c(=O)cc(N4CCOCC4)nc23)cccc1C(F)(F)F ? 0

Value lookup for %Inh; key = Cn1cncc1-c1cc2c(Nc3ccc(OCc4ccccc4)cc3)ncnc2cn1 0

# get_value(readout='%Inh', item= O=c1cc(N2CCOCC2)nc2n(Cc3cccc(Cl)c3Cl)c3ccccc3n12 ) 0

Fill in the blank: the reported %Inh of COc1ccc2cc(-c3nc(-c4ccccc4C(C)C)[nH]c3-c3ccncc3)ccc2c1 is ____. 0
